Target: recombinant homotrimeric HA, A/Indonesia/5/05 H5N1 (Influenza A virus A/Indonesia/5/05 (H5N1))
Test: trimeric HA microarray, transfection set 3
Conditions: remark: other sources report otherwise
quantity_measured: Trimeric HA Binding RLU
Note: state the figure and append the unit.

Challenge: Report Trimeric HA Binding RLU for TCN-530 (5248_H10a) (antibody, V domains shown) VH: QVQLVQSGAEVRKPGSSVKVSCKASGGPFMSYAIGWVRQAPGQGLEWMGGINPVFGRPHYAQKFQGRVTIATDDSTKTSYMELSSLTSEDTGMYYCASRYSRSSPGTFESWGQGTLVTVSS VL: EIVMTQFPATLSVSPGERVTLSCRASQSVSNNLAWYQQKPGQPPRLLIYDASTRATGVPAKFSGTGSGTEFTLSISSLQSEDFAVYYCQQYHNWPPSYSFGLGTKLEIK please.
Response given: 25500 RLU

Challenge: Report Trimeric HA Binding RLU for TCN-533 (5256_A17) (antibody, V domains shown) VH: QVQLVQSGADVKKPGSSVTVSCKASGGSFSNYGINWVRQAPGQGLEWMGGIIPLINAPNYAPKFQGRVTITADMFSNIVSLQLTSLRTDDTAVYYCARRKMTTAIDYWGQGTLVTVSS VL: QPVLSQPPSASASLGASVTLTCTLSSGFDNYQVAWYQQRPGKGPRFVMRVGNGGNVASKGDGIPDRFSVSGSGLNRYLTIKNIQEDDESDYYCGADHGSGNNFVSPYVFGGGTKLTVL please.
Response given: 28300 RLU

Challenge: Recorded Trimeric HA Binding RLU for TCN-504 (3251_K17) (antibody, V domains shown) VH: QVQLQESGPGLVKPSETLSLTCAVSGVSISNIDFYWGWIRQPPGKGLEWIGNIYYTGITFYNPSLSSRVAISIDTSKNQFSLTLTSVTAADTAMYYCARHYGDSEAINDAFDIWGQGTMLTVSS VL: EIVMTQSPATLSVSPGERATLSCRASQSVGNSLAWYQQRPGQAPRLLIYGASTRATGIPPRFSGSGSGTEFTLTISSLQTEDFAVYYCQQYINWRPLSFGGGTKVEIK , please?
Response given: 18600 RLU

Challenge: Fill blank: measured Trimeric HA Binding RLU of the binder TCN-523 (5248_A17) (antibody, V domains shown) VH: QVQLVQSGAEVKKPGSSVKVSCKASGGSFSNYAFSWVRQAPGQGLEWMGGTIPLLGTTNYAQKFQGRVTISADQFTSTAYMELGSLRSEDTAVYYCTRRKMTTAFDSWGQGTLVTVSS VL: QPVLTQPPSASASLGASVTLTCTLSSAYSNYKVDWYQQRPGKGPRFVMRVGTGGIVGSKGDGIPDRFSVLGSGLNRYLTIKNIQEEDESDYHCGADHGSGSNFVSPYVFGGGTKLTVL is ____.
Response given: 22000 RLU
